Test system: Streptococcus mutans (ATCC33402)
TEST_SUMMARY: Microtitre plate assay, IC90 determination
Format: cell-based
CONDITION_SUMMARY: 90% inhibitory concentration for bacterial growth
RECORDED_ENDPOINT: IC90 SMU 33402 (µg/mL)
Could you give me the number in µg/mL? Just the number is fine.

Examples from the recorded data:
{"columns": ["COMPOUND", "IC90 SMU 33402 [µg/mL]"],
 "data": [
  ["COc1nc2ccc(Br)cc2cc1C(c1ccccc1)C(O)(CC[N+](C)(C)C)c1ccccc1.[I-] (single isomer, unassigned) [Compound 10]", 10.3],
  ["COc1nc2ccc(Br)cc2cc1C(c1ccccc1)C(O)(CC[N+](C)(C)C)c1cccc2ccccc12.[I-] (single isomer, unassigned) [Compound 102]", 2.5],
  ["COc1nc2ccc(Br)cc2cc1C(c1ccccc1)C(O)(CC[N+](C)(C)C)c1ccccc1.[I-] (single isomer, unassigned) [Compound 57]", 12.9],
  ["CSc1nc2ccc(Br)cc2cc1C(c1ccccc1)C(O)(CCCC[N+](C)(C)C)c1ccccc1.[I-] (single isomer, unassigned) [Compound L]", 0.4],
  ["COc1nc2ccc(Br)cc2cc1C(c1ccccc1)C(O)(CC[N+](C)(C)C)c1cccc2ccccc12.[I-] (single isomer, unassigned) [Compound 121]", 2.8]
]}

Please turn your attention to the following entry.
The measured IC90 SMU 33402 associated with COc1nc2ccc(Br)cc2cc1C(c1ccccc1)C(O)(CC[N+](C)(C)C)c1cccc2ccccc12.[I-] (single isomer, unassigned) [Compound 103] reads 2.8
